- SUBJECT_OF_TEST: Protein farnesyltransferase (Homo sapiens, UniProt P49354+P49356)
- TEST_DESCRIPTION: Inhibition of FPP incorporation into biotinylated K-Ras-derived peptide by human farnesyl transferase
- Type: functional
RECORDED_METRIC: pIC50
Scale explanation: pIC50 corresponds to minus log10 of a concentration expressed in moles per litre.

Give pIC50 for the following compound: CCN(Cc1ccncc1)C(=O)Cc1c(-c2ccccc2)[nH]c2ccccc12 7.27

* * *

- SUBJECT_OF_TEST: Protein farnesyltransferase (Homo sapiens, UniProt P49354+P49356)
- TEST_DESCRIPTION: Concentration required for the inhibitory activity against human Farnesyltransferase
- Type: protein-complex assay
pIC50: −log10 of the molar value.
Everything with pIC50 lower than 6 is no; everything else, including exactly 6, is yes.

Worked set:
CC(C)N(Cc1cnn(C)c1)C(=O)Cc1c(-c2ccccc2)[nH]c2ccccc12 : yes
CC[C@@H](C)N(Cc1ccncc1)C(=O)Cc1c(-c2ccccc2)[nH]c2ccccc12 : no
CC(C)N(Cc1ccncc1)C(=O)Cc1c(-c2ccccc2)[nH]c2ccccc12 : yes
O=C(Cc1c(-c2ccccc2)[nH]c2ccccc12)N(Cc1ccncc1)C1CC1 : yes
O=C(Cc1c(-c2ccccc2)[nH]c2ccccc12)N(Cc1cccnc1)C1CCC1 : yes
CC(C)N(Cc1cncnc1)C(=O)Cc1c(-c2ccccc2)[nH]c2ccccc12 : yes
CC(C)N(Cc1ccnn1C)C(=O)Cc1c(-c2ccccc2)[nH]c2ccccc12 : yes
CC(C)N(Cc1ccncc1)C(=O)Cc1cn(Cc2ccccc2Br)c2ccccc12 : yes

Has O=C(Cc1c(-c2ccccc2)[nH]c2ccccc12)N(Cc1ccncc1)C1CCC1 a recorded pIC50 greater than or equal to 6? yes

Does O=C(Cc1c(-c2ccccc2)[nH]c2ccccc12)N(Cc1ccncc1)C1CCCC1 have a reported pIC50 of at least 6? no

Kindly determine if pIC50 recorded for CC(C)N(Cc1ccncc1)C(=O)Cc1cn(Cc2cccc(Br)c2)c2ccccc12 is above or exactly 6. no

Please tell me: is the molecule CCn1c(-c2ccccc2)c(CC(=O)N(Cc2ccncc2)C(C)C)c2ccccc21 at or over 6 in terms of pIC50? no

Tell me whether pIC50 is at least 6 here: N#CCCN(C(=O)Cc1c(-c2ccccc2Cl)[nH]c2ccccc12)C1CC1 no

Could you tell me if the measured pIC50 of CC(C)N(Cc1ccncc1)C(=O)Cc1cn(Cc2ccc(Br)cc2)c2ccccc12 reaches 6 or more? no

Form field: pIC50 at least 6? Entry: Cn1c(-c2ccccc2)c(CC(=O)N(CCC#N)C2CC2)c2ccccc21 yes

Could you tell me if the measured pIC50 of O=C(Cc1c(-c2ccccc2)[nH]c2ccccc12)N(Cc1cccnc1)Cc1cccnc1 reaches 6 or more? no

Does the reported pIC50 for CC(C)CN(Cc1cccnc1)C(=O)Cc1c(-c2ccccc2)[nH]c2ccccc12 fall at or above the 6 mark? no

Assess whether reported pIC50 for CCCCn1c(-c2ccccc2)c(CC(=O)N(Cc2ccncc2)C(C)C)c2ccccc21 sits at 6 or higher. no

I'd appreciate it if you could say whether O=C(Cc1c(-c2ccccc2)[nH]c2ccccc12)N(Cc1cccnc1)C1CC1 has pIC50 at least equal to 6. yes

Does the reported pIC50 for CC(C)N(Cc1ccncc1)C(=O)Cc1c(-c2ccc(Br)cc2)[nH]c2ccccc12 fall at or above the 6 mark? no

* * *

- SUBJECT_OF_TEST: Protein farnesyltransferase (Homo sapiens, UniProt P49354+P49356)
- TEST_DESCRIPTION: Inhibition of HDJ-2 farnesylation in PSN-1 cells at without GGT1
- Assay type: functional, cell-based
RECORDED_METRIC: pEC50
The scale used: pEC50 is minus the common logarithm of the concentration in molar units.

Entry CC(C)N(Cc1ccncc1)C(=O)Cc1c(-c2ccccc2)n(C)c2ccccc12 needs its pEC50 filled in; supply it. 5.70

* * *

- SUBJECT_OF_TEST: Protein farnesyltransferase (Homo sapiens, UniProt P49354+P49356)
- TEST_DESCRIPTION: Inhibition of FPP incorporation into biotinylated K-Ras-derived peptide by human farnesyl transferase
- Assay type: functional
RECORDED_METRIC: IC50 (nM)
API: value field is a number in nM; no unit string.

Specify IC50 for CCN(Cc1ccncc1)C(=O)Cc1c(-c2ccccc2)[nH]c2ccccc12 and stop. 230

* * *

- SUBJECT_OF_TEST: Geranylgeranyl transferase type I (Homo sapiens, UniProt P49354+P53609)
- TEST_DESCRIPTION: Inhibitory activity against human Geranylgeranyl transferase type I
RECORDED_METRIC: IC50

N#Cc1ccc(Cn2cncc2CN2CCN(C(=O)NC34CC5CC(CC(C5)C3)C4)CC2)cc1 : 0.2 nM

Quick one: give measured IC50 for CCN(Cc1ccncc1)C(=O)Cc1c(-c2ccccc2)[nH]c2ccccc12 > 20000 nM

* * *

- SUBJECT_OF_TEST: Protein farnesyltransferase (Homo sapiens, UniProt P49354+P49356)
- TEST_DESCRIPTION: Inhibition of HDJ-2 farnesylation in PSN-1 cells
- Assay type: functional, cell-based
Measured pEC50 of individual entries
Scale note: pEC50 = -log10(concentration in M).

CC(C)N(Cc1ccncc1)C(=O)Cc1c(-c2ccccc2)n(C)c2ccccc12 : 5.88

In the following, a different compound is considered.
Give pEC50 only, for Cc1ccccc1-c1c(CC(=O)N(Cc2ccncc2)C(C)C)c2ccccc2n1C , using Protein farnesyltransferase (Homo sapiens, UniProt P49354+P49356) data. 5.97

* * *

- SUBJECT_OF_TEST: Protein farnesyltransferase (Homo sapiens, UniProt P49354+P49356)
- TEST_DESCRIPTION: Inhibition of FPP incorporation into biotinylated K-Ras-derived peptide by human farnesyl transferase
- Type: functional
RECORDED_METRIC: pIC50
Scale: negative log10 of molar concentration, which is what pIC50 denotes.

Specify measured pIC50 for CCN(Cc1ccncc1)C(=O)Cc1c(-c2ccccc2)[nH]c2ccccc12 . 5.40

* * *

- SUBJECT_OF_TEST: Protein farnesyltransferase (Homo sapiens, UniProt P49354+P49356)
- TEST_DESCRIPTION: Inhibition of K-Ras farnesylation in PSN-1 cells without GGT1
- Format: functional, cell-based
RECORDED_METRIC: EC50

Tell us which EC50 value is on record for CC(C)N(Cc1ccncc1)C(=O)Cc1c(-c2ccccc2)n(C)c2ccccc12 > 30 µM

* * *

- SUBJECT_OF_TEST: Protein farnesyltransferase (Homo sapiens, UniProt P49354+P49356)
- TEST_DESCRIPTION: Inhibition of FPP incorporation into biotinylated K-Ras-derived peptide by human farnesyl transferase with 5 nM ATP
- Type: functional
RECORDED_METRIC: pIC50
Recall that pIC50 is obtained by taking minus log10 of the concentration measured in molar.

Assign pIC50 to the following record: CCN(Cc1ccncc1)C(=O)Cc1c(-c2ccccc2)[nH]c2ccccc12 6.72

* * *

- SUBJECT_OF_TEST: Protein farnesyltransferase (Homo sapiens, UniProt P49354+P49356)
- TEST_DESCRIPTION: Inhibition of FPP incorporation into biotinylated K-Ras-derived peptide by human farnesyl transferase with 5 nM ATP
- Format: functional
RECORDED_METRIC: IC50 (nM)
Please reply with the bare figure in nM and do not write the unit itself.

Give recorded IC50. CCN(Cc1ccncc1)C(=O)Cc1c(-c2ccccc2)[nH]c2ccccc12 65

* * *

- SUBJECT_OF_TEST: Protein farnesyltransferase (Homo sapiens, UniProt P49354+P49356)
- TEST_DESCRIPTION: Concentration required for the inhibitory activity against human Farnesyltransferase
- Assay type: protein-complex assay
Please use satisfied for IC50 under 100 nM and not satisfied for everything else, ties included.

As a guide, the following entries are already answered.
N#CCCN(C(=O)Cc1c(-c2ccccc2)[nH]c2ccccc12)C1CC1 : not satisfied
CC(C)N(Cc1ccccn1)C(=O)Cc1c(-c2ccccc2)[nH]c2ccccc12 : not satisfied
CC(C#N)N(Cc1cccnc1)C(=O)Cc1c(-c2ccccc2)[nH]c2ccccc12 (stereo not given) : not satisfied
O=C(Cc1c(-c2ccccc2)[nH]c2ccccc12)N(Cc1cccnc1)C1CCCC1 : not satisfied
CCCn1c(-c2ccccc2)c(CC(=O)N(Cc2ccncc2)C(C)C)c2ccccc21 : not satisfied
CC[C@H](C)N(Cc1ccncc1)C(=O)Cc1c(-c2ccccc2)[nH]c2ccccc12 : satisfied

Is IC50 strictly under 100 nM for the entry CC(C)N(Cc1ccncc1)C(=O)Cc1c(-c2cccc(Cl)c2)[nH]c2ccccc12 ? not satisfied

Problem: For the compound CC(C)N(Cc1ccncc1)C(=O)Cc1c[nH]c2ccccc12 , is IC50 under 100 nM? not satisfied

Problem: For the compound CC(C)N(Cc1ccn(C)n1)C(=O)Cc1c(-c2ccccc2)[nH]c2ccccc12 , is IC50 under 100 nM? not satisfied

Quick check: does CC(C)N(Cc1ccncc1)C(=O)Cc1c(-c2ccccc2Cl)[nH]c2ccccc12 have IC50 under 100 nM? satisfied

Answer whether the compound Cc1ccccc1-c1c(CC(=O)N(Cc2ccncc2)C(C)C)c2ccccc2n1C has IC50 strictly less than 100 nM satisfied

Is the reported IC50 for CC(C)N(Cc1cccnc1)C(=O)Cc1c(-c2ccccc2)[nH]c2ccccc12 strictly below 100 nM? satisfied

Hello, is IC50 of the following compound strictly smaller than 100 nM? CC(C)N(Cc1ccncc1)C(=O)Cc1c(-c2ccccc2)n(C)c2ccccc12 satisfied
